# Assay Details: Exposure after oral dose of micronized vs non-micronized particles of Compound 1 free base (Example 3)
# Format: in vivo
# Measurement Conditions: male, cynomolgus monkey, plasma, po, 300 mg/kg, male Cynomolgus monkeys, QD, Mean (n = 3), read-out: Cmax
Measurement Kind: Cmax (ng/mL)
Express your answer in ng/mL, writing the number without its unit.

Input [2H]C([2H])([2H])C(c1cc2nnc(-c3cc(F)ccc3F)n2nc1OCc1ncnn1C)(C([2H])([2H])[2H])C([2H])([2H])[2H] . Output Cmax: 6900

----------
# Assay Details: Exposure after oral dose of micronized vs non-micronized particles of Compound 1 free base (Example 3)
# Format: in vivo
# Measurement Conditions: male, cynomolgus monkey, plasma, po, 300 mg/kg, male Cynomolgus monkeys, QD, Mean (n = 3)
Measurement Kind: AUC(0-t) (µg·h/mL)
Express your answer in µg·h/mL, writing the number without its unit.

Input [2H]C([2H])([2H])C(c1cc2nnc(-c3cc(F)ccc3F)n2nc1OCc1ncnn1C)(C([2H])([2H])[2H])C([2H])([2H])[2H] . Output AUC(0-t): 159
